Tested on: Saccharomyces cerevisiae;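 note: PSI is a weighted mean of sequencing reads over stability bins, variants kept only with over 10 reads, mCherry proximal and sfGFP distal, peptide attached via GGGS linker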
assay.comment: protein stability index of tFT-peptide fusion (C-terminal peptide) (PSI (0-1 scale)); higher = more stable (slower turnover)
assay.setup: genetic background: wild type; temperature: 30 C
parameter.measured: protein stability index
# answer = number (no unit)

Below, 5 sequences whose answers are already recorded.
>  <query.sequence>
DRNKINYYKGGI

>  <measured.value>
0.694

$$$$
>  <query.sequence>
GEGRGRTETEMK

>  <measured.value>
0.682

$$$$
>  <query.sequence>
SGQVFADGSYAD

>  <measured.value>
0.699

$$$$
>  <query.sequence>
FQGPPFKHVNSV

>  <measured.value>
0.701

$$$$
>  <query.sequence>
GGCCLWVGFLGG

>  <measured.value>
0.702

$$$$

Q: Bench note: what protein stability index did CSNGRKFKKDDA show?
Result: 0.682

Q: I am curious: what protein stability index value has been reported for LVCLFRGCGLRD ?
Result: 0.714

Q: Recorded protein stability index for VGPFRISRSFTG , please?
Result: 0.717

Q: What measured protein stability index goes with GGWFLLTRLGNW ?
Result: 0.684
